// values below are reported PBM binding z-score
System: RARa homodimer (NR concentration 270 nM)
experiment.description: PBM binding z-score (relative to random genomic background probes); higher = stronger binding; sequences stand for … in GC…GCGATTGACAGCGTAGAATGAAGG

- sequence.record: "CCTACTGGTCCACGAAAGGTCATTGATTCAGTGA"
  test.target: "RARa homodimer (NR concentration 270 nM)"
  recorded.measurement: 2.86
- sequence.record: "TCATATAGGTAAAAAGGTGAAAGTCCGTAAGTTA"
  test.target: "RARa homodimer (NR concentration 270 nM)"
  recorded.measurement: 1.81

Request: Would you mind telling me what PBM binding z-score value was observed for `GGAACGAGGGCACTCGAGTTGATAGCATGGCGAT` ?
Response: -0.815

Request: Would you mind telling me what PBM binding z-score value was observed for `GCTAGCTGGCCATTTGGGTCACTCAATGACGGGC` ?
Response: -1.31

Request: Would you mind telling me what PBM binding z-score value was observed for `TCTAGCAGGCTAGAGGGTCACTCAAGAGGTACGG` ?
Response: -0.017

----------
System: THRa:RXRa (NR concentration 90 nM, RXRa partner concentration 90 nM)
experiment.description: PBM binding z-score (relative to random genomic background probes); higher = stronger binding; sequences stand for … in GC…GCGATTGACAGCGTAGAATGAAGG
metric.name: PBM binding z-score
Please reply with the value in numeric form only.

Known PBM binding z-score results, listed for orientation:
- sequence.record: "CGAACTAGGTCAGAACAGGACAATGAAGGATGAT"
  PBM binding z-score: 3.62
- sequence.record: "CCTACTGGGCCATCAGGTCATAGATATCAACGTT"
  PBM binding z-score: 3.09
- sequence.record: "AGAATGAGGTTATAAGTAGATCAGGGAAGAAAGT"
  PBM binding z-score: 2.1

# context switch: different sequence, same PBM binding z-score
Request: Lookup: PBM binding z-score / THRa:RXRa (NR concentration 90 nM, RXRa partner concentration 90 nM) / `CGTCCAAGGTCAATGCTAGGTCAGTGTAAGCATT`
Response: 4.48

----------
// values below are reported PBM binding z-score
System: PXR homodimer (NR concentration 270 nM)
experiment.description: PBM binding z-score (relative to random genomic background probes); higher = stronger binding; sequences stand for … in GC…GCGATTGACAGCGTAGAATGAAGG
Please reply with the value in numeric form only.

Known PBM binding z-score results, listed for orientation:
- sequence.record: "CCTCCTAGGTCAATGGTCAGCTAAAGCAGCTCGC"
  PBM binding z-score: -0.0378
- sequence.record: "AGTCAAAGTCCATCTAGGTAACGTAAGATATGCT"
  PBM binding z-score: 0.131
- sequence.record: "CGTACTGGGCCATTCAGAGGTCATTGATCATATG"
  PBM binding z-score: 2.51
- sequence.record: "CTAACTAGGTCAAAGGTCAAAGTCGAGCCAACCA"
  PBM binding z-score: 1.84
- sequence.record: "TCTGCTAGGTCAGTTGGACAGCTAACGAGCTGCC"
  PBM binding z-score: -1.13

Request: Would you mind telling me what PBM binding z-score value was observed for `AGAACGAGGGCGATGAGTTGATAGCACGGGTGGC` ?
Response: 1.89

Request: Would you mind telling me what PBM binding z-score value was observed for `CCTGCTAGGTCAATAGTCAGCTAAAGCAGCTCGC` ?
Response: -0.908

Request: Would you mind telling me what PBM binding z-score value was observed for `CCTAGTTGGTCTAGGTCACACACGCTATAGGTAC` ?
Response: 0.764

Request: Would you mind telling me what PBM binding z-score value was observed for `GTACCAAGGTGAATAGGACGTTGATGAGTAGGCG` ?
Response: -0.00267

Request: Would you mind telling me what PBM binding z-score value was observed for `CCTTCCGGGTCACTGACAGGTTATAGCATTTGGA` ?
Response: 0.125

Request: Would you mind telling me what PBM binding z-score value was observed for `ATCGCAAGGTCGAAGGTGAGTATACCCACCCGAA` ?
Response: -0.311

Request: Would you mind telling me what PBM binding z-score value was observed for `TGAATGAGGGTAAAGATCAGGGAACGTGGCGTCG` ?
Response: -0.487

Request: Would you mind telling me what PBM binding z-score value was observed for `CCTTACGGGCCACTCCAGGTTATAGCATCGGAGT` ?
Response: 0.0587

Request: Would you mind telling me what PBM binding z-score value was observed for `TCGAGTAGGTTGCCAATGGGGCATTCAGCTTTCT` ?
Response: -1.13

Request: Would you mind telling me what PBM binding z-score value was observed for `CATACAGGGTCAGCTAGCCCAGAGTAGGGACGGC` ?
Response: -0.17

Request: Would you mind telling me what PBM binding z-score value was observed for `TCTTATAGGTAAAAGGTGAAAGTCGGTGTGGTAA` ?
Response: 0.675

Request: Would you mind telling me what PBM binding z-score value was observed for `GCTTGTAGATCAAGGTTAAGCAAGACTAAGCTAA` ?
Response: -0.43

Request: Would you mind telling me what PBM binding z-score value was observed for `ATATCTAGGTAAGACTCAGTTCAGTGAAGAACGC` ?
Response: 1.25

----------
Tested on: RARb:RXRa (NR concentration 270 nM, RXRa partner concentration 90 nM)
experiment.description: PBM binding z-score (relative to random genomic background probes); higher = stronger binding; sequences stand for … in GC…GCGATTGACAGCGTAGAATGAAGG
Short version: PBM binding z-score at least 3 is class 1, less is class 0.

These recorded examples may help you get a feel for the data.
- sequence.record: "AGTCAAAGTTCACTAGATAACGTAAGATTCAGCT"
  qualitative.label: "class 1"
- sequence.record: "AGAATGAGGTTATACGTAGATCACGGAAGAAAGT"
  qualitative.label: "class 0"
- sequence.record: "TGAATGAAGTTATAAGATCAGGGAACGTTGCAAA"
  qualitative.label: "class 0"
- sequence.record: "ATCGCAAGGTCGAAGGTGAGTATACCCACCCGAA"
  qualitative.label: "class 0"
- sequence.record: "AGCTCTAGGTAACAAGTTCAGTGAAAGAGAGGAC"
  qualitative.label: "class 0"

Request: Please indicate if the recorded PBM binding z-score for `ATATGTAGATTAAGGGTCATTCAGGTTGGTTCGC` meets or exceeds 3.
Response: class 0

Request: Please indicate if the recorded PBM binding z-score for `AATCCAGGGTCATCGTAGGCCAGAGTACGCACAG` meets or exceeds 3.
Response: class 1

----------
Tested on: RXRa DBDmut IVT, anti-RXR (DBD mutation: RXRa K156A/R161A, NR concentration 90 nM)
experiment.description: PBM binding z-score (relative to random genomic background probes); higher = stronger binding; sequences stand for … in GC…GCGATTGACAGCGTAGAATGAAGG
metric.name: PBM binding z-score
Please reply with the value in numeric form only.

Known PBM binding z-score results, listed for orientation:
- sequence.record: "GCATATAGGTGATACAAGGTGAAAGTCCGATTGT"
  recorded.measurement: 0.341
- sequence.record: "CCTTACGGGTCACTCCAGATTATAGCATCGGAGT"
  recorded.measurement: 1.28

Request: Would you mind telling me what PBM binding z-score value was observed for `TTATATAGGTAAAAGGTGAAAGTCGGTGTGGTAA` ?
Response: 0.197

Request: Would you mind telling me what PBM binding z-score value was observed for `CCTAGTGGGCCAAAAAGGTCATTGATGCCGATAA` ?
Response: 0.794

Request: Would you mind telling me what PBM binding z-score value was observed for `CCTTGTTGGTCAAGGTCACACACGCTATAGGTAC` ?
Response: 1.83

----------
System: VDR:RXRa (NR concentration 270 nM, RXRa partner concentration 90 nM)
experiment.description: PBM binding z-score (relative to random genomic background probes); higher = stronger binding; sequences stand for … in GC…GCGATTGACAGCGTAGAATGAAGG
// values below are reported PBM binding z-score
Please reply with the value in numeric form only.

- sequence.record: "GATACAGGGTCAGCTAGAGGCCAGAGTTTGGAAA"
  test.target: "VDR:RXRa (NR concentration 270 nM, RXRa partner concentration 90 nM)"
  PBM binding z-score: 3.36
- sequence.record: "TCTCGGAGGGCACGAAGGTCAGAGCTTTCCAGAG"
  test.target: "VDR:RXRa (NR concentration 270 nM, RXRa partner concentration 90 nM)"
  PBM binding z-score: 5.15
- sequence.record: "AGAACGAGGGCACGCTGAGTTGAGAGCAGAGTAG"
  test.target: "VDR:RXRa (NR concentration 270 nM, RXRa partner concentration 90 nM)"
  PBM binding z-score: 1.59
- sequence.record: "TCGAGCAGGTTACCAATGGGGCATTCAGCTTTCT"
  test.target: "VDR:RXRa (NR concentration 270 nM, RXRa partner concentration 90 nM)"
  PBM binding z-score: 0.08
- sequence.record: "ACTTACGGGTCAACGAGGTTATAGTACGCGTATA"
  test.target: "VDR:RXRa (NR concentration 270 nM, RXRa partner concentration 90 nM)"
  PBM binding z-score: 7.78
- sequence.record: "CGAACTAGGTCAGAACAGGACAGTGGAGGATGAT"
  test.target: "VDR:RXRa (NR concentration 270 nM, RXRa partner concentration 90 nM)"
  PBM binding z-score: 0.581
- sequence.record: "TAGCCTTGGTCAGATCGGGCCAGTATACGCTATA"
  test.target: "VDR:RXRa (NR concentration 270 nM, RXRa partner concentration 90 nM)"
  PBM binding z-score: -0.557
- sequence.record: "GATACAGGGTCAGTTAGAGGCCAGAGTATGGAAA"
  test.target: "VDR:RXRa (NR concentration 270 nM, RXRa partner concentration 90 nM)"
  PBM binding z-score: 2.97

Request: Would you mind telling me what PBM binding z-score value was observed for `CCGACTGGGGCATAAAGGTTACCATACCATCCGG` ?
Response: 1.4

Request: Would you mind telling me what PBM binding z-score value was observed for `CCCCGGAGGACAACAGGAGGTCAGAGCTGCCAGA` ?
Response: 1.91

Request: Would you mind telling me what PBM binding z-score value was observed for `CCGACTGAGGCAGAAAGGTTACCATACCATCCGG` ?
Response: 0.732

Request: Would you mind telling me what PBM binding z-score value was observed for `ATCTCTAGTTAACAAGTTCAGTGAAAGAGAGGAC` ?
Response: 2.52
